The measurements presented in this section are drawn from patent US20250129095A1.

Test: Caco-2 assay
Format: in vitro ADME
Conditions: human, Caco-2; apical to basolateral (a-b) permeability; 10 μM test compound, pH 7.4; read-out: Caco PappAB
METRIC_NAME: Papp A→B at 90 min, 10 μM (×10⁻⁶ cm/s)
Give the value, in units of ×10⁻⁶ cm/s, as a plain number.

Request: Which Papp A→B at 90 min, 10 μM is listed for C[C@H](Oc1cc(OCCO)nc(-c2noc3c2CCC[C@@]32CCCc3sc(N)c(C#N)c32)n1)[C@@H]1CCCN1C [II-6] ?
Response: 1.2

Request: Same lookup for C[C@H](Oc1cc(N(C)CCN(C)C)nc(-c2noc3c2CCC[C@@]32CCCc3sc(N)c(C#N)c32)n1)[C@@H]1CCCN1C [II-20] , please.
Response: 0.8

Request: Same lookup for C[C@H](Oc1cc(O[C@@H]2CNC2(C)C)nc(-c2noc3c2CCC[C@@]32CCCc3sc(N)c(C#N)c32)n1)[C@@H]1C[C@@H](F)CN1C [II-31] , please.
Response: 0.8

Request: Same lookup for C[C@H](Oc1cc(Oc2cncnc2)nc(-c2onc3c2CCC[C@@]32CCCc3sc(N)c(C#N)c32)n1)[C@@H]1CCCN1C [Example I-3] , please.
Response: 18

Request: Same lookup for C[C@H](Oc1cc(O[C@@H]2CNC[C@@H]2F)nc(-c2noc3c2CCC[C@@]32CCCc3sc(N)c(C#N)c32)n1)[C@@H]1CCCN1C [II-29] , please.
Response: 0.9

* * *

System: LOVO cells
Experiment: LOVO CTG proliferation assay (120 h) (CRC, G13D)
Format: cell-based
Conditions: Homo sapiens
METRIC_NAME: pIC50
Reminder that pIC50 is minus the log10 of a molar concentration.

Request: Which pIC50 is listed for C[C@H](Oc1cc(Oc2cnccn2)nc(-c2noc3c2CCC[C@@]32CCCc3sc(N)c(C#N)c32)n1)[C@@H]1CCCN1C ?
Response: 7.82

Request: Same lookup for C[C@H](Oc1cc(Nc2ncco2)nc(-c2noc3c2CCC[C@@]32CCCc3sc(N)c(C#N)c32)n1)[C@@H]1CCCN1C , please.
Response: 6.30

Request: Same lookup for C[C@H](Oc1cc(O[C@H]2CN(C)C(C)(C)C2)nc(-c2noc3c2CCC[C@@]32CCCc3sc(N)c(C#N)c32)n1)[C@@H]1CCCN1C , please.
Response: 6.46

Request: Same lookup for C[C@H](Oc1cc(Oc2nccs2)nc(-c2onc3c2CCC[C@@]32CCCc3sc(N)c(C#N)c32)n1)[C@@H]1CCCN1C , please.
Response: 7.27

Request: Same lookup for COc1c(OCC2(N(C)C)COC2)nc(-c2noc3c2CCC[C@@]32CCCc3sc(N)c(C#N)c32)nc1O[C@@H](C)[C@@H]1CCCN1C , please.
Response: 7.46

Request: Same lookup for C[C@H](Oc1cc(Nc2nccs2)nc(-c2noc3c2CCC[C@@]32CCCc3sc(N)c(C#N)c32)n1)[C@@H]1CCCN1C , please.
Response: 5.95

Request: Same lookup for C[C@H](Oc1cc(Sc2ncccn2)nc(-c2onc3c2CCC[C@@]32CCCc3sc(N)c(C#N)c32)n1)[C@@H]1CCCN1C , please.
Response: 5.49

Request: Same lookup for C[C@H](Oc1cc(Oc2cncnc2)nc(-c2onc3c2CCC[C@@]32CCCc3sc(N)c(C#N)c32)n1)[C@@H]1CCCN1C , please.
Response: 7.46

Request: Same lookup for C[C@H](Oc1cc(OCC2(N(C)C)COC2)nc(-c2onc3c2CCC[C@@]32CCCc3sc(N)c(C#N)c32)n1)[C@@H]1CCCN1C , please.
Response: 7.57

Request: Same lookup for C[C@H](Oc1cc(Nc2ncccn2)nc(-c2noc3c2CCC[C@@]32CCCc3sc(N)c(C#N)c32)n1)[C@@H]1CCCN1C , please.
Response: 6.53

Request: Same lookup for C[C@H](Oc1cc(O[C@H]2CCOC2)nc(-c2noc3c2CCC[C@@]32CCCc3sc(N)c(C#N)c32)n1)[C@@H]1CCCN1C , please.
Response: 7.03

Request: Same lookup for C[C@H](Oc1cc(Oc2cncnc2)nc(-c2noc3c2CCC[C@@]32CCCc3sc(N)c(C#N)c32)n1)[C@@H]1CCCN1C , please.
Response: 6.36

Request: Same lookup for C[C@H]1CN(C)CCCN1c1cc(O[C@@H]2CNC2(C)C)nc(-c2noc3c2CCC[C@@]32CCCc3sc(N)c(C#N)c32)n1 , please.
Response: 5.47

Request: Same lookup for C[C@H](Oc1cc(O[C@H]2CNC(C)(C)C2)nc(-c2noc3c2CCC[C@@]32CCCc3sc(N)c(C#N)c32)n1)[C@@H]1CCCN1C (single isomer, unassigned) , please.
Response: 6.30

Request: Same lookup for C[C@H](Oc1cc(N(C)CCN(C)C)nc(-c2noc3c2CCC[C@@]32CCCc3sc(N)c(C#N)c32)n1)[C@@H]1CCCN1C , please.
Response: 6.86

Request: Same lookup for C[C@H](Oc1cc(Oc2ccon2)nc(-c2noc3c2CCC[C@@]32CCCc3sc(N)c(C#N)c32)n1)[C@@H]1CCCN1C , please.
Response: 6.99

Request: Same lookup for C[C@H](Oc1cc(O[C@@H]2CNC2(C)C)nc(-c2noc3c2CCC[C@@]32CCCc3sc(N)c(C#N)c32)n1)[C@@H]1CCCN1C , please.
Response: 7.00

Request: Same lookup for C[C@H](Oc1cc(Nc2ccncn2)nc(-c2noc3c2CCC[C@@]32CCCc3sc(N)c(C#N)c32)n1)[C@@H]1CCCN1C , please.
Response: 6.15

Request: Same lookup for C[C@H](Oc1cc(NCC2COC2)nc(-c2noc3c2CCC[C@@]32CCCc3sc(N)c(C#N)c32)n1)[C@@H]1CCCN1C , please.
Response: 6.25

Request: Same lookup for C[C@H](Oc1cc(N[C@H]2CCOC2)nc(-c2onc3c2CCC[C@@]32CCCc3sc(N)c(C#N)c32)n1)[C@@H]1CCCN1C , please.
Response: 6.24

Request: Same lookup for C[C@H](Oc1cc(OCC2(N(C)C)COC2)nc(-c2noc3c2CCC[C@@]32CCCc3sc(N)c(C#N)c32)n1)[C@@H]1CCCN1C , please.
Response: 7.41

Request: Same lookup for COCCOc1cc(O[C@@H](C)[C@@H]2CCCN2C)nc(-c2noc3c2CCC[C@@]32CCCc3sc(N)c(C#N)c32)n1 , please.
Response: 6.93

Request: Same lookup for C[C@H](Oc1cc(Nc2cccnn2)nc(-c2noc3c2CCC[C@@]32CCCc3sc(N)c(C#N)c32)n1)[C@@H]1CCCN1C , please.
Response: 5.95

Request: Same lookup for C[C@H](Oc1cc(OCC2(N(C)C)CC2)nc(-c2noc3c2CCC[C@@]32CCCc3sc(N)c(C#N)c32)n1)[C@@H]1CCCN1C , please.
Response: 6.73

Request: Same lookup for C[C@H](Oc1cc(Oc2nccs2)nc(-c2noc3c2CCC[C@@]32CCCc3sc(N)c(C#N)c32)n1)[C@@H]1CCCN1C , please.
Response: 7.28

Request: Same lookup for C[C@H](Oc1cc(N(C)C)nc(-c2noc3c2CCC[C@@]32CCCc3sc(N)c(C#N)c32)n1)[C@@H]1CCCN1C , please.
Response: 5.39
